target: T1, cynomolgus PD-1 expressed on cells (cynomolgus monkey, UniProt B0LAJ3 25-288); test: flow cytometry, CHO-S Cyno-PD-1
T1 construct: also called CHO-S Cyno-PD-1; 293:cyPD1
T1 sequence (B0LAJ3 entry or part of it limits assumed): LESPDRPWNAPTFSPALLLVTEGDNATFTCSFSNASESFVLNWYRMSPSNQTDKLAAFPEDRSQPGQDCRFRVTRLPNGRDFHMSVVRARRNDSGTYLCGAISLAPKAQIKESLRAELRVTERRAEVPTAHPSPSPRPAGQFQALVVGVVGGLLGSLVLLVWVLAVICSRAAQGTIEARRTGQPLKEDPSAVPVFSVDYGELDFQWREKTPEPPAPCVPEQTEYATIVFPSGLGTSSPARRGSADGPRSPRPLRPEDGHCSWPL
Overview of reported Max MFI across a group of binders:
API: value field is a number in MFI; no unit string.

Binder: XVT458-z2-m2 (antibody, V domains shown, IgG format; also called z2_XVT458m2) VH: QVQLVQSGAEVKKPGASVKVSCKASGYTFTNFYIHWVRQAPGQGLEWMGRIYPNYGFTAYNQKFKDRVTMTVDTSTSTAYMELRSLRSDDTAVYYCARGYSYAMDYWGQGTTVTVSS VL: DIQMTQSPSSVSASVGDRVTITCSASQGIYGDLNWYQQKPGKAPKLLIYHTSSLHSGVPSRFSGSGSGTDFTLTISSLQPEDFATYYCQAYSKDLLTFGGGTKLEIK
Max MFI [MFI]: 367

Binder: XVT458-z2-m1 (antibody, V domains shown, IgG format; also called z2-XVT458-m1; z2_XVT458m1) VH: QVQLVQSGAEVKKPGASVKVSCKASGYTFTNFYIHWVRQAPGQGLEWMGSIYPNYGFTAYNQKFKDRVTMTVDTSTSTAYMELRSLRSDDTAVYYCARGYSYAMDYWGQGTTVTVSS VL: DIQMTQSPSSVSASVGDRVTITCSASQGIWGDLNWYQQKPGKAPKLLIYHTSQLHSDVPSRFSGSGSGTDFTLTISSLQPEDFATYYCQGYSKDLLTFGGGTKLEIK
Max MFI [MFI]: 70

Binder: XVT458-z2-m5 (antibody, V domains shown, IgG format; also called z2_XVT458m5) VH: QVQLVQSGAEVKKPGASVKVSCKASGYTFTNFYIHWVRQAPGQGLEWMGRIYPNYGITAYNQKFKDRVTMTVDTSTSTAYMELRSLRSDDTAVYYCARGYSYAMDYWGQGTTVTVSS VL: DIQMTQSPSSVSASVGDRVTITCSASQGIYGDLNWYQQKPGKAPKLLIYHTSSRHSGVPSRFSGSGSGTDFTLTISSLQPEDFATYYCQAYSKDLLTFGGGTKLEIK
Max MFI [MFI]: 335

Given z2-XVT458 (antibody, IgG1, V domains shown, full hIgG1; also called XVT458-z2; GH + T071V) VH: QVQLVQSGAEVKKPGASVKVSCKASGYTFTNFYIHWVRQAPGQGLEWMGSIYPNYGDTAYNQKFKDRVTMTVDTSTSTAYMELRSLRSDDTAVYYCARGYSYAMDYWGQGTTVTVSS VL: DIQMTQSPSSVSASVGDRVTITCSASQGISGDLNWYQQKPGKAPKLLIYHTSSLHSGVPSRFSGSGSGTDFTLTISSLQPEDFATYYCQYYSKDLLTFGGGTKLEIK , respond with its Max MFI.
109
